The entries below are paired with their reported polymerase ribozyme fitness (log ratio).
B1: TPR t1 (parent)
chain: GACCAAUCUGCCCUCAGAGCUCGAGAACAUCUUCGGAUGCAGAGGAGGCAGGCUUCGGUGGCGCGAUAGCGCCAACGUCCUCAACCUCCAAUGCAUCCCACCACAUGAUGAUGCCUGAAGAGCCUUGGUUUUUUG

Variants of: B1
Assay: polymerase ribozyme fitness, log enrichment relative to wild type (log ratio); higher = more active; in vitro selection for triplet polymerase activity
Reply with the value as a number alone.

Use these answered entries as a reference point.
- C22G C53G G63C G113U: -5.64
- G57C C99U A118G: -4.32
- C73A C85U U116G: -2.18
- C12U C49G: -0.764
- C12U C56A G69A: -2.89
- C11U C15G G47A C86A A90G G117U G120C: -0.496
- C53A C79A G128A: -3.36
- C15U A16U G42C G61A C89A: -1.37
- G77U C94U: 0.0625
- A6U C40U A84G C89U G113U G122C: -5.19

For A16U G23A G36U A46C G47C C73A C114U U129G U132A , write its polymerase ribozyme fitness (log ratio).
-7.62

Let me know recorded polymerase ribozyme fitness (log ratio) for G69C G122A , thanks.
-1.53

State its polymerase ribozyme fitness (log ratio) for this variant: G77U C89U A91U U116C G120C G135A
-2.85

Output measured polymerase ribozyme fitness (log ratio) for this item: A68U A121G
-6.65

Indicate the recorded polymerase ribozyme fitness (log ratio) value for this variant: G39U G120A
-0.0767
